# Test system: Escherichia coli
# experiment: Bactericidal activity against Escherichia coli F-50 after 4 hrs
# Assay type: functional
# test context: F-50, 4 h
readout type: MBC

molecule=CCCCCCn1c(=O)c2c(-c3ccccc3)nc(-c3ccc[n+](Cc4ccccc4)c3)n2c2ccccc21.[Cl-] tested_target="Escherichia coli" observed_value="> 500 µg/mL"
molecule="CCn1cc(C(=O)O)c(=O)c2cc(F)c(N3CCNCC3)cc21 [NORFLOXACIN]" tested_target="Escherichia coli" observed_value="5 µg/mL"
molecule="O=C(O)c1cn(C2CC2)c2cc(N3CCNCC3)c(F)cc2c1=O [CIPROFLOXACIN]" tested_target="Escherichia coli" observed_value="0.5 µg/mL"
molecule=CCCCCCCCCn1c(=O)c2c(-c3ccccc3)nc(-c3ccc[n+](Cc4ccccc4)c3)n2c2ccccc21.[Cl-] tested_target="Escherichia coli" observed_value="> 500 µg/mL"
